Each recorded value in this set is attributed to the supplement of paper PMC8728848.

binders and their reported glycan array binding signal (z-score)
- System: Fuc(a1-2)[Gal(a1-3)]Gal
- Test: glycan array binding signal (z-score within array); higher = stronger binding
- Measurement Parameters: glycan notation: IUPAC condensed, linker removed
The full list was thinned out, with the strongest signals kept by preference.
Answer with a number only.

FliC (Clostridium difficile) (protein) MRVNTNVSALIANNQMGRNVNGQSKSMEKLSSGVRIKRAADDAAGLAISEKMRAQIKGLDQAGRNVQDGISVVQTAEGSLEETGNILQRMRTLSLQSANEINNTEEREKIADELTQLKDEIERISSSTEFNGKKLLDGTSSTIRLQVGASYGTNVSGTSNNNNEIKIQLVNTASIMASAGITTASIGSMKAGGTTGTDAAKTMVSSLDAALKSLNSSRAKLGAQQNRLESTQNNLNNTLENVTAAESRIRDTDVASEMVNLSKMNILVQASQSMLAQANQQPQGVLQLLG    0.187

Fill in the blank: the reported glycan array binding signal (z-score) of RBMC1 (Vibrio cholerae) (protein) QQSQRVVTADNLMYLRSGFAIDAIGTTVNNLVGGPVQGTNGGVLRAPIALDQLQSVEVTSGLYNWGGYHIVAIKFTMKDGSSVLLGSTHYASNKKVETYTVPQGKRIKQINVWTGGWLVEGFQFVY is ____.
-0.15
